assay: Plasma PK of Tadalafil and Vardenafil after a single oral dose (LC/MS/MS); format: in vivo, mice; settings: mouse, NSG mice, single oral dose 10 mg/kg, 4 hours post dose, read-out: Plasma levels
endpoint.label: concentration at 4 h (µM)
Entry rule: numbers only, all in µM.

Asked: Note concentration at 4 h for the compound shown: CN1CC(=O)N2[C@H](c3ccc4c(c3)OCO4)c3[nH]c4ccccc4c3C[C@@H]2C1=O
Given back: 3.9

---

experiment: Plasma PK of Tadalafil and Vardenafil after a single oral dose (LC/MS/MS); type: in vivo, mice; details: mouse, CD-1 mice, single oral dose 100 mg/kg, 8 hours post dose, read-out: Plasma levels
endpoint.label: concentration at 8 h (nM)
Entry rule: numbers only, all in nM.

Asked: Note concentration at 8 h for the compound shown: CCCc1nc(C)c2c(=O)[nH]c(-c3cc(S(=O)(=O)N4CCN(CC)CC4)ccc3OCC)nn12
Given back: 1180
